Target: BTK (Homo sapiens)
Entries and their IC50 values follow.

[
  {
    "molecule": "O=C(CNc1cccc(Br)c1)NC1CCCN(c2ncnc3[nH]ccc23)C1 (stereo not shown)",
    "result": "< 100 nM"
  },
  {
    "molecule": "C[C@H](O)[C@@H](Nc1cc(F)cc(Cl)c1)C(=O)N[C@@H]1CCCN(c2ncnc3[nH]ccc23)C1",
    "result": "< 100 nM"
  },
  {
    "molecule": "O=C(CNc1cccc(C(F)(F)F)n1)NC1CCCN(c2ncnc3[nH]ccc23)C1 (stereo not shown)",
    "result": "1000 to 10000 nM"
  },
  {
    "molecule": "O=C(N[C@@H]1CCCN(c2ncnc3[nH]ncc23)C1)[C@H](Nc1cccc(Cl)c1)C1CC1",
    "result": "< 100 nM"
  },
  {
    "molecule": "O=C(N[C@@H]1CCCN(c2ncnc3[nH]ccc23)C1)[C@@H](CC1CC1)Nc1cc(F)cc(Cl)c1",
    "result": "1000 to 10000 nM"
  }
]

So what does the record say about IC50 for "CCCc1ccccc1NCC(=O)N[C@@H]1CCCN(c2ncnc3[nH]ccc23)C1" ?
< 100 nM

So what does the record say about IC50 for "CC(C)c1ccccc1N[C@@H](C(=O)N[C@@H]1CCCN(c2ncnc3[nH]ccc23)C1)C(C)(C)C" ?
100 to 999 nM

So what does the record say about IC50 for "CC(C)(O)[C@@H](Nc1cc(F)cc(Cl)c1)C(=O)N[C@@H]1CCCN(c2ncnc3[nH]ccc23)C1" ?
100 to 999 nM

So what does the record say about IC50 for "CC[C@@H](Nc1ccccc1C(C)C)C(=O)N[C@@H]1CCCN(c2ncnc3[nH]ncc23)C1" ?
100 to 999 nM

So what does the record say about IC50 for "CC[C@@H](Nc1cc(Cl)cc(Cl)c1)C(=O)N[C@@H]1CCCN(c2ncnc3[nH]ncc23)C1" ?
< 100 nM

So what does the record say about IC50 for "Cc1cccc(NCC(=O)N[C@@H]2CCCN(c3ncnc4[nH]ccc34)C2)c1C" ?
100 to 999 nM

So what does the record say about IC50 for "Cc1cc(NCC(=O)N[C@@H]2CCCN(c3ncnc4[nH]ccc34)C2)ccc1Cl" ?
1000 to 10000 nM

So what does the record say about IC50 for "O=C(CNc1cccc(N2CCCCC2)c1)N[C@@H]1CCCN(c2ncnc3[nH]ccc23)C1" ?
1000 to 10000 nM

So what does the record say about IC50 for "CC[C@@H](Nc1cc(F)cc(Cl)c1)C(=O)N[C@H]1CN(c2ncnc3[nH]ncc23)CC[C@@H]1C" ?
< 100 nM

So what does the record say about IC50 for "CN(C)S(=O)(=O)c1ccccc1NCC(=O)N[C@@H]1CCCN(c2ncnc3[nH]ncc23)C1" ?
100 to 999 nM

So what does the record say about IC50 for O=C(CNc1ccccc1F)NC1CCCN(c2ncnc3[nH]ccc23)C1 (stereo not shown) ?
100 to 999 nM

###

Assay read-out pIC50; system under study: BTK (Homo sapiens, UniProt Q06187).
Sequence (Q06187 whole entry): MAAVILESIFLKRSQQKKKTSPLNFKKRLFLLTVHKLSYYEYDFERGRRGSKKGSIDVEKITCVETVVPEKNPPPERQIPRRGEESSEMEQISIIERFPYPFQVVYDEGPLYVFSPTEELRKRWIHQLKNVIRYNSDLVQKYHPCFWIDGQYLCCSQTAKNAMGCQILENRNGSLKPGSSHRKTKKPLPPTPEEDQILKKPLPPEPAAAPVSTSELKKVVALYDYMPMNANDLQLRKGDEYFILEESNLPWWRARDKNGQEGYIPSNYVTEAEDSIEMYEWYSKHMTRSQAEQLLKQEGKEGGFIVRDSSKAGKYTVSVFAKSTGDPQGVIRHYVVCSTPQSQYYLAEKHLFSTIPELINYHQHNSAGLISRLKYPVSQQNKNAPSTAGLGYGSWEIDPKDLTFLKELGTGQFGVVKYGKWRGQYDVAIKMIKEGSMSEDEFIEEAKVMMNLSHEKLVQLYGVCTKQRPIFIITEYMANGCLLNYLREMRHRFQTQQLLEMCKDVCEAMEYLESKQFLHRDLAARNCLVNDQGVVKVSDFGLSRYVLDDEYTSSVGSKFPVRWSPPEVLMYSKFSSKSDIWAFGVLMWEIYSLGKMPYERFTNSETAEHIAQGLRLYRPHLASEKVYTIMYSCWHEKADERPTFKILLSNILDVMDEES
pIC50: −log10 of the molar value.

Recorded results for 5 compounds are shown here.
[
  {
    "compound": "O=C(N[C@@H]1CCCN(c2ncnc3[nH]ccc23)C1)[C@@H](CC1CC1)Nc1cc(Cl)cc(Cl)c1",
    "pIC50": "6.00 to 7.00"
  },
  {
    "compound": "CCC[C@@H](Nc1cccc(Cl)c1)C(=O)N[C@@H]1CCCN(c2ncnc3[nH]ncc23)C1",
    "pIC50": "> 7.00"
  },
  {
    "compound": "O=C(CNc1cccc2ncccc12)N[C@@H]1CCCN(c2ncnc3[nH]ccc23)C1",
    "pIC50": "5.00 to 6.00"
  },
  {
    "compound": "Cc1ccc(NCC(=O)N[C@@H]2CCCN(c3ncnc4[nH]ccc34)C2)cc1",
    "pIC50": "6.00 to 7.00"
  },
  {
    "compound": "C[C@H](O)[C@@H](Nc1cc(Cl)cc(Cl)c1)C(=O)N[C@@H]1CCCN(c2ncnc3[nH]ccc23)C1",
    "pIC50": "> 7.00"
  }
]

Request body: readout pIC50, system BTK (Homo sapiens, UniProt Q06187), query Cn1cccc(NCC(=O)NC2CCCN(c3ncnc4[nH]ccc34)C2)c1=O (centres unmarked) . Return the value.
< 5.00

Request body: readout pIC50, system BTK (Homo sapiens, UniProt Q06187), query "O=C(CNc1cc(Cl)cc(OC(F)(F)F)c1)N[C@@H]1CCCN(c2ncnc3[nH]ccc23)C1" . Return the value.
> 7.00

Request body: readout pIC50, system BTK (Homo sapiens, UniProt Q06187), query "O=C(CNc1ccccc1S(=O)(=O)N1CCCCC1)N[C@@H]1CCCN(c2ncnc3[nH]ncc23)C1" . Return the value.
> 7.00

Request body: readout pIC50, system BTK (Homo sapiens, UniProt Q06187), query "Cc1c(F)cccc1NCC(=O)N[C@@H]1CCCN(c2ncnc3[nH]ccc23)C1" . Return the value.
6.00 to 7.00

Request body: readout pIC50, system BTK (Homo sapiens, UniProt Q06187), query "COc1cccc(NCC(=O)N[C@@H]2CCCN(c3ncnc4[nH]ccc34)C2)c1" . Return the value.
6.00 to 7.00

Request body: readout pIC50, system BTK (Homo sapiens, UniProt Q06187), query "C[C@@H](Nc1cc(F)cc(Cl)c1)C(=O)N[C@@H]1CCCN(c2ncnc3[nH]ncc23)C1" . Return the value.
> 7.00

Request body: readout pIC50, system BTK (Homo sapiens, UniProt Q06187), query O=C(CNc1cccc(F)c1F)NC1CCCN(c2ncnc3[nH]ccc23)C1 (centres unmarked) . Return the value.
6.00 to 7.00

Request body: readout pIC50, system BTK (Homo sapiens, UniProt Q06187), query "O=C(CNc1ccccc1F)N[C@@H]1CCCN(c2ncnc3[nH]ccc23)C1" . Return the value.
6.00 to 7.00

Request body: readout pIC50, system BTK (Homo sapiens, UniProt Q06187), query O=C(CNc1cccc2nccn12)NC1CCCN(c2ncnc3[nH]ccc23)C1 (centres unmarked) . Return the value.
< 5.00

Request body: readout pIC50, system BTK (Homo sapiens, UniProt Q06187), query O=C(CNC(=O)c1cccc(Cl)c1)NC1CCCN(c2ncnc3[nH]ccc23)C1 (centres unmarked) . Return the value.
5.00 to 6.00

Request body: readout pIC50, system BTK (Homo sapiens, UniProt Q06187), query "C[C@H](O)[C@@H](Nc1ccccc1)C(=O)N[C@@H]1CCCN(c2ncnc3[nH]ccc23)C1" . Return the value.
6.00 to 7.00

The measured values listed here are drawn from patent US9029359B2.
